# testedSystem: panel of more than 300 wild-type and mutant kinases (313 kinase panel) (Homo sapiens)
# Sequence (Q8N4C8 whole entry, change not shown): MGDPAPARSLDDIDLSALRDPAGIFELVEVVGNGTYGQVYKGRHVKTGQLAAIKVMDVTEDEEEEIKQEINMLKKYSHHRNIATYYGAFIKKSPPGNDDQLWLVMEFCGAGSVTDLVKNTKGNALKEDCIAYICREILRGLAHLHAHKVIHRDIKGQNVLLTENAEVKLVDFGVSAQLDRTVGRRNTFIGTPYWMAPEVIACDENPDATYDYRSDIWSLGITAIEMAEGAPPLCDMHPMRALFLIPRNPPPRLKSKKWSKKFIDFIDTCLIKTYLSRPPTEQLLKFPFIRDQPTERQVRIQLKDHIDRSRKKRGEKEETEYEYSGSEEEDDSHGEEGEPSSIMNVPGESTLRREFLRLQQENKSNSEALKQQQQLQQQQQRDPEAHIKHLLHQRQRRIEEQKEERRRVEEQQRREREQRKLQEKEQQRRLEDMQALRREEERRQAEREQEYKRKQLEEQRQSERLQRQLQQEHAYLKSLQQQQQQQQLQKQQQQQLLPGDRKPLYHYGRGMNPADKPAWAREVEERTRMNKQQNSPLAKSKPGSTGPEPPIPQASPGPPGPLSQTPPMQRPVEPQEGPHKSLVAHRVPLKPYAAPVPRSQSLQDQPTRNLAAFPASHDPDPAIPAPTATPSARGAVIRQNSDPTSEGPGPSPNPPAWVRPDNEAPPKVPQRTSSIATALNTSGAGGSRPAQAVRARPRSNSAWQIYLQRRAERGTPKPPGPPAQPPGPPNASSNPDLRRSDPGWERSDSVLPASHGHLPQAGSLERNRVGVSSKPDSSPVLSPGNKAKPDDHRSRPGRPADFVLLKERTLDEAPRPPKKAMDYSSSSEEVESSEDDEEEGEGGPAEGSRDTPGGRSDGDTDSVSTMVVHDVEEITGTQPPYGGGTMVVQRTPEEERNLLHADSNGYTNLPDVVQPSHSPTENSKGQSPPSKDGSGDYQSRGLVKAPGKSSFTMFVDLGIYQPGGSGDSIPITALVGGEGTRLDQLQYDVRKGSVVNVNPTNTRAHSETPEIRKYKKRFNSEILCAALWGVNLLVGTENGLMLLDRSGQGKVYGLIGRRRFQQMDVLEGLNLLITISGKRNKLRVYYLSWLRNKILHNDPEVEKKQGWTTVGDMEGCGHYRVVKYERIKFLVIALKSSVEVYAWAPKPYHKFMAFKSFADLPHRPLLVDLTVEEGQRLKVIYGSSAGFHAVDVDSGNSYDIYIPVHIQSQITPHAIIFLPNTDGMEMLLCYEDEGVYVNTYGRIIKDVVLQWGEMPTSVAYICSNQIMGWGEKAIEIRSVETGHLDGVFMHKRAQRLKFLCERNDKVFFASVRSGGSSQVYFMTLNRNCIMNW
# assayMethodText: Kinase profiling in a biochemical assay panel (mobility shift assays and ELISA), %-inhibition at 1 μM; selectivity entropy
# runConditions: kinase MINK; 1 μM
endpointLabel: %-inhibition of MINK (%)
All answers are understood in %, so give the number only.

# value lookup — system panel of more than 300 wild-type and mutant kinases (313 kinase panel) (Homo sapiens), readout %-inhibition of MINK, item Cc1nc(Nc2ncc(C(=O)Nc3c(C)cccc3Cl)s2)cc(N2CCN(CCO)CC2)n1
40

Query %-inhibition of MINK on panel of more than 300 wild-type and mutant kinases (313 kinase panel) (Homo sapiens) for CC(=O)Nc1cccc(-n2c(=O)n(C3CC3)c(=O)c3c(Nc4ccc(I)cc4F)n(C)c(=O)c(C)c32)c1
-1.8

I'm curious: which %-inhibition of MINK was measured for Cc1cn(-c2cc(NC(=O)c3ccc(C)c(Nc4nccc(-c5cccnc5)n4)c3)cc(C(F)(F)F)c2)cn1 tested on panel of more than 300 wild-type and mutant kinases (313 kinase panel) (Homo sapiens)?
3

Recorded %-inhibition of MINK for CO[C@H]1C[C@@H]2CC[C@@H](C)[C@@](O)(O2)C(=O)C(=O)N2CCCC[C@H]2C(=O)O[C@H]([C@H](C)C[C@@H]2CC[C@@H](OC(=O)C(C)(CO)CO)[C@H](OC)C2)CC(=O)[C@H](C)/C=C(\C)[C@@H](O)[C@@H](OC)C(=O)[C@H](C)C[C@H](C)/C=C/C=C/C=C/1C with panel of more than 300 wild-type and mutant kinases (313 kinase panel) (Homo sapiens), please?
-4

Form field - read-out: %-inhibition of MINK; system: panel of more than 300 wild-type and mutant kinases (313 kinase panel) (Homo sapiens); submitted item: Cc1ccc(C(=O)Nc2ccc(CN3CCN(C)CC3)c(C(F)(F)F)c2)cc1C#Cc1cnc2cccnn12
80

What is its %-inhibition of MINK for panel of more than 300 wild-type and mutant kinases (313 kinase panel) (Homo sapiens)? Entry: CC(C)(C)c1nc(-c2cccc(NS(=O)(=O)c3c(F)cccc3F)c2F)c(-c2ccnc(N)n2)s1
-0.772

Form field: %-inhibition of MINK recorded for Cc1ccc(Nc2nccc(N(C)c3ccc4c(C)n(C)nc4c3)n2)cc1S(N)(=O)=O with panel of more than 300 wild-type and mutant kinases (313 kinase panel) (Homo sapiens) (enter value)
35

Look up %-inhibition of MINK with panel of more than 300 wild-type and mutant kinases (313 kinase panel) (Homo sapiens) for this compound: COc1cc2nccc(Oc3ccc(NC(=O)C4(C(=O)Nc5ccc(F)cc5)CC4)cc3)c2cc1OC [cabozantinib]
-2
